Data credit: the supplement of paper PMC8728848

Reported glycan array binding signal (z-score) values are given for each entry in this list.
target: Fuc(a1-2)Gal(b1-4)GlcNAc(b1-3)GalNAc; experiment: glycan array binding signal (z-score within array); higher = stronger binding; settings: glycan notation: IUPAC condensed, linker removed
Only a selection was taken, and the strongest signals are over-represented in it overall.
Please reply with the number alone, leaving off any unit.

Please look at this binder and report its glycan array binding signal (z-score): CFEM-PPm (Pichia pastoris), F2QPV1 (protein) AVATPPACLLACAAEVVKESSDCDALNNIQCICENEGSAIHACLESTCPDGLSSTALQSFEDVCE
1.77

Please look at this binder and report its glycan array binding signal (z-score): Gal 4 (Homo sapiens), Q8K419 (protein) MAYVPAPGYQPTYNPTLPYKRPIPGGLSVGMSVYIQGMAKENMRRFHVNFAVGQDDGADVAFHFNPRFDGWDKVVFNTMQSGQWGKEEKKKSMPFQKGKHFELVFMVMPEHYKVVVNGNSFYEYGHRLPVQMVTHLQVDGDLELQSINFLGGQPAAAPYPGAMTIPAYPAGSPGYNPPQMNTLPVMTGPPVFNPRVPYVGALQGGLTVRRTIIIKGYVLPTARNFVINFKVGSSGDIALHLNPRIGDSVVRNSFMNGSWGAEERKVAYNPFGPGQFFDLSIRCGMDRFKVFANGQHLFDFSHRFQAFQMVDTLEINGDITLSYVQI
-0.199

Now examine the next entry.
Please look at this binder and report its glycan array binding signal (z-score): Gal 7 (Homo sapiens) (protein) MSNVPHKSSLPEGIRPGTVLRIRGLVPPNASRFHVNLLCGEEGGSDAALHFNPRLDTSEVVFNSKEGGSWGREERGPGVPFGRGQPFEVLIIASDDGFKAVVGDAQYHHFRHRLPLARVRLVEVGGDVQLDSVRIF
0.082
